Target: Epidermal growth factor receptor (Homo sapiens)
Sequence (P00533 whole entry): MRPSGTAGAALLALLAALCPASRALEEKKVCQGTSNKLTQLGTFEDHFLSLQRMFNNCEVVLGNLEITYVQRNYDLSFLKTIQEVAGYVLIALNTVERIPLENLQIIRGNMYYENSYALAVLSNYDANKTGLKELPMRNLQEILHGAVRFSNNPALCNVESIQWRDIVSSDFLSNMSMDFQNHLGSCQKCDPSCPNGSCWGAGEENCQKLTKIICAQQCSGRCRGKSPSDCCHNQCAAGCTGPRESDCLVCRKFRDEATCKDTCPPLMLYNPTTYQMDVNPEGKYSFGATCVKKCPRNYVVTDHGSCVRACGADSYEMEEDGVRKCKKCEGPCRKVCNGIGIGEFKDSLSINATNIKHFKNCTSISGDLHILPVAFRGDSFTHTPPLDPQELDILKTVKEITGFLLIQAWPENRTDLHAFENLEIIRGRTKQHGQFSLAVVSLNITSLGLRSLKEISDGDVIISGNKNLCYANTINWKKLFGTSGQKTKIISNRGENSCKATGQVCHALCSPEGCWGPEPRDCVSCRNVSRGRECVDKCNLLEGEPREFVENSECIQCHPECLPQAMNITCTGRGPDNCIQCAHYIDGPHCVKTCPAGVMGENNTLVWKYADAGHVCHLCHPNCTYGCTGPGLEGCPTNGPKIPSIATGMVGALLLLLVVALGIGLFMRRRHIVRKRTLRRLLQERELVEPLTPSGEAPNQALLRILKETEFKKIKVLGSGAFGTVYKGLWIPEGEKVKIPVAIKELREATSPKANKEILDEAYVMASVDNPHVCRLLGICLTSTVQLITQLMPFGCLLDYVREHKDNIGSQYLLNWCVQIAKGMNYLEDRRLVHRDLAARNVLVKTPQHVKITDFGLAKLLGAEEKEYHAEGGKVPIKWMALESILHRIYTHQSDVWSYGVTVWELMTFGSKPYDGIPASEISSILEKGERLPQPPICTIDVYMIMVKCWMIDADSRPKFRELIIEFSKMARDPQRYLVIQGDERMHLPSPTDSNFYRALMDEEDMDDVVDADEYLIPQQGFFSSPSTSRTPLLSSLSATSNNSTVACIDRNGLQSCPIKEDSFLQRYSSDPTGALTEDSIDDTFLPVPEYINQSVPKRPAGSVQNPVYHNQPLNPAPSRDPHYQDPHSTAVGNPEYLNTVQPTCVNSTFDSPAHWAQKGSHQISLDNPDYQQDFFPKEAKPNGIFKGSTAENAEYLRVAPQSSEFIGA
Assay: Inhibition of N-terminal 6His/TEV protease cleavage site-tagged wild type human EGFR using poly (Glu,Tyr) 4:1 as substrate after 1 hr by ELISA
log10(IC50) values by entry
measure: log10(IC50) (log10 of the value in nM)

C=CC(=O)Nc1cccc(-n2c(=O)cc(C)c3cnc(Nc4ccc(N5CCN(C)C(C)C5)cc4OC)nc32)c1 (centres undefined)
2.23
C=CC(=O)Nc1cccc(-n2c(=O)cc(C)c3cnc(Nc4cnn(C5CCN(C)CC5)c4)nc32)c1
2.22
C=CC(=O)Nc1cc(CC)cc(-n2c(=O)cc(C)c3cnc(Nc4ccc(N5CCN(C)CC5)cc4OC)nc32)c1
2.67
C=CC(=O)Nc1cccc(-n2c(=O)cc(C)c3cnc(Nc4nc5c(s4)CN(C)CC5)nc32)c1
2.74
C=CC(=O)Nc1cc(-n2c(=O)cc(C)c3cnc(Nc4ccc(N5CC(C)N(C)C(C)C5)cc4OC)nc32)cc(C(F)(F)F)c1 (centres undefined)
1.99
C=CC(=O)Nc1cccc(-n2c(=O)cc(C)c3cnc(Nc4ccc(N5CCN(C)CC5)cc4OC)nc32)c1
2.52
C=CC(=O)Nc1cc(-n2c(=O)cc(C)c3cnc(Nc4ccc(N5CCN(C)CC5)cc4OC)nc32)cc(C(F)(F)F)c1
2.26
C=CC(=O)Nc1cc(Br)cc(-n2c(=O)cc(C)c3cnc(Nc4ccc(N5CCN(C)CC5)cc4OC)nc32)c1
1.76
C=CC(=O)Nc1cccc(-n2c(=O)cc(C)c3cnc(Nc4ccc(N5CCN(C)CC5)nc4)nc32)c1
1.67
C=CC(=O)Nc1cc(C)cc(-n2c(=O)cc(C)c3cnc(Nc4ccc(N5CCN(C)CC5)cc4OC)nc32)c1
2.32
C=CC(=O)Nc1cc(-n2c(=O)cc(C)c3cnc(Nc4ccc(N5CCN(C)C(C)C5)cc4OC)nc32)cc(C(F)(F)F)c1 (centres undefined)
1.82
C=CC(=O)Nc1cc(-n2c(=O)cc(C)c3cnc(Nc4ccc(N5CCN(C)CC5)cc4OC)nc32)ccc1C
1.57
C=CC(=O)Nc1cc(F)cc(-n2c(=O)cc(C)c3cnc(Nc4ccc(N5CCN(C)CC5)cc4OC)nc32)c1
1.41
C=CC(=O)Nc1cc(Cl)cc(-n2c(=O)cc(C)c3cnc(Nc4ccc(N5CCN(C)CC5)cc4OC)nc32)c1
1.52
C=CC(=O)Nc1cc(C(C)C)cc(-n2c(=O)cc(C)c3cnc(Nc4ccc(N5CCN(C)CC5)cc4OC)nc32)c1
1.38
C=CC(=O)Nc1cccc(-n2c(=O)cc(C)c3cnc(Nc4cnn(CCN(C)C)c4)nc32)c1
2.65

====

clearance values by entry
Test: Apparent clearance in Sprague-Dawley rat at 5 mg/kg, iv by LC-MS/MS analysis
Assay type: ADME, organism-based
Conditions: Sprague-Dawley, in vivo, read-out: CL(app) (converted)
measure: clearance (mL/min/kg)

C=CC(=O)Nc1cccc(-n2c(=O)cc(C)c3cnc(Nc4ccc(N5CCN(C)C(C)C5)cc4OC)nc32)c1.CS(=O)(=O)O (stereo not given)
197
C=CC(=O)Nc1cccc(-n2c(=O)cc(C)c3cnc(Nc4ccc(N5CCN(C)CC5)cc4OC)nc32)c1.CS(=O)(=O)O
190
C=CC(=O)Nc1cc(-n2c(=O)cc(C)c3cnc(Nc4ccc(N5CCN(C)CC5)cc4OC)nc32)cc(C(F)(F)F)c1.CS(=O)(=O)O
102
C=CC(=O)Nc1cc(-n2c(=O)cc(C)c3cnc(Nc4ccc(N5CC(C)N(C)C(C)C5)cc4OC)nc32)cc(C(F)(F)F)c1.CS(=O)(=O)O (stereo not given)
205
C=CC(=O)Nc1cccc(-n2c(=O)cc(C)c3cnc(Nc4ccc(N5CC(C)N(C)C(C)C5)cc4OC)nc32)c1.CS(=O)(=O)O (stereo not given)
135
